target: Histamine H3 receptor (Homo sapiens, UniProt Q9Y5N1); experiment: Displacement of [3H]alpha-methylhistamine from human recombinant histamine H3 receptor expressed in HEK293 cells after 1 to […] by scintillation counting analysis
Sequence (Q9Y5N1 whole entry): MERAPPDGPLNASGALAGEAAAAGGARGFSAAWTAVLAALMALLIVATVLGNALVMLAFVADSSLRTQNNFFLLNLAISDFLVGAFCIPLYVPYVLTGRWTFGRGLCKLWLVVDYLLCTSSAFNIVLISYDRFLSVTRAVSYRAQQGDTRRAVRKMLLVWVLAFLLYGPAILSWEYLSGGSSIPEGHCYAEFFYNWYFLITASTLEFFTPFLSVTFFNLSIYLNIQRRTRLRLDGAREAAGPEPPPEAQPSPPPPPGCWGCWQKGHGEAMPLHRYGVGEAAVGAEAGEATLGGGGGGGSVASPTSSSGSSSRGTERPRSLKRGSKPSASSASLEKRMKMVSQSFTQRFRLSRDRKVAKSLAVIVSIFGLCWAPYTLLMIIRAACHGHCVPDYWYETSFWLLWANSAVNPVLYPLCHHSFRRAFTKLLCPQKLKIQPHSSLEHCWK
measure: Ki

1. C=CCN(CC=C)CCc1c[nH]c2ccc(OC)cc12 ... > 10 µM

*Q* Fill in the recorded Ki for this molecule, with Histamine H3 receptor (Homo sapiens, UniProt Q9Y5N1) as test system: CC(N)Cc1c[nH]c2ccccc12 (configuration not stated)
*A* > 10 µM

* * *

molecular target: D(3) dopamine receptor (Homo sapiens); test: Displacement of [3H]N-methylspiperone from human recombinant dopamine D3 receptor expressed in HEK293 cells after 1 to […] by scintillation counting analysis
Sequence (P35462 whole entry): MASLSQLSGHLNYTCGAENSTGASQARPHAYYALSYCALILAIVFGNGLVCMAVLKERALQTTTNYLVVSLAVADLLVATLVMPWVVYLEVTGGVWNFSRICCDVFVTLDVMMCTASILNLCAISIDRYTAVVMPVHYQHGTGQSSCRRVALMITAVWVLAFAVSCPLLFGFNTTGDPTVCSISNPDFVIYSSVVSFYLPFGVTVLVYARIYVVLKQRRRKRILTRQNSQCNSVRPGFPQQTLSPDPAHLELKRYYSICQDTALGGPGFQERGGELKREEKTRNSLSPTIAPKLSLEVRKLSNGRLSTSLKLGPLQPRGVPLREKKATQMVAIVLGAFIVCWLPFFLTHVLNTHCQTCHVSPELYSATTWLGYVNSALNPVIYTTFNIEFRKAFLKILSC
measure: Ki

*Q* I would be grateful if you could share the reported Ki for CC(N)Cc1c[nH]c2ccccc12 (stereo unspecified) .
*A* > 10 µM
